Reference source for all entries: paper PMC4574934

# System: human neutrophils
# Protocol notes: EZ-TAXIScan chemotaxis assay, human neutrophils
# Type: cell-based
# Parameters: key: moderate (++) response; stronger chemotactic response (+++)
# Recorded conditions: Table 2; peptide 20 ng/mL; 1-3 experiments
# Description: Heparinized venous blood was centrifuged over a Ficoll-Paque PLUS gradient (d = 1.077 g/ml, GE Healthcare, Boston, MA). […] Cells were resuspended in HBSS without Ca^2+/Mg^2+ (Thermo Scientific, Tewksbury, MA), and viability and purity were assessed as described above. […] Neutrophils were counted and applied in the EZ-TAXIScan chemotaxis assay. […] Cell migration was recorded every 15 seconds for 30 minutes at 37°C in a humidified environmental chamber. […]
Measured property: Chemotactic response

                              residue_codes                tgt  reading
0  QIPEQSQCQAIHNVVHAIIL [alpha-gliadin synthetic library peptide]  human neutrophils      +++
1  PFPQPQLPYLQPQPFRPQQP [alpha-gliadin synthetic library peptide]  human neutrophils       ++
2  QQHNIAHGRSQVLQQSTYQL [alpha-gliadin synthetic library peptide]  human neutrophils      +++
3  QQYPLGQGSFRPSQQNPLAQ [alpha-gliadin synthetic library peptide]  human neutrophils       ++
4  GSVQPQQLPQFEEIRNLALQ [alpha-gliadin synthetic library peptide]  human neutrophils      +++
5  LQELCCQHLWQIPEQSQCQA [alpha-gliadin synthetic library peptide]  human neutrophils       ++

Exercise: Return Chemotactic response for the following sequence: PQNPSQQHPQEQVPLVQQQQ [alpha-gliadin synthetic library peptide]
Solution: ++

Exercise: Using the record for SSQVSFQQPLQQYPLGQGSF [alpha-gliadin synthetic library peptide] , state its measured Chemotactic response.
Solution: ++

Exercise: Please supply the value of reported Chemotactic response for the item PQQPISQQQQQQQQQQQQQQ [alpha-gliadin synthetic library peptide]
Solution: ++

Exercise: Please report the measured Chemotactic response for QVLQQSTYQLLQELCCQHLW [alpha-gliadin synthetic library peptide]
Solution: ++

Exercise: Identify Chemotactic response associated with the sequence PPYCTIVPFGIFGTNYR [alpha-gliadin synthetic library peptide]
Solution: ++

Exercise: Query Chemotactic response for MVRVPVPQLQPQNPSQQHPQ [alpha-gliadin synthetic library peptide]
Solution: ++

====

# System: human neutrophils
# Protocol notes: EZ-TAXIScan chemotaxis assay, human neutrophils
# Type: cell-based
# Recorded conditions: Table 2; peptide 20 ng/mL; 1-3 experiments
The threshold is inclusive: Chemotaxis Index (CI) of exactly 0.3 counts as 1; values below receive -1.

# count of solved cases: 5
                              residue_codes  classification
0  QQYPLGQGSFRPSQQNPLAQ [alpha-gliadin synthetic library peptide]              -1
1  QVLQQSTYQLLQELCCQHLW [alpha-gliadin synthetic library peptide]               1
2  PQNPSQQHPQEQVPLVQQQQ [alpha-gliadin synthetic library peptide]              -1
3  PFPQPQLPYLQPQPFRPQQP [alpha-gliadin synthetic library peptide]              -1
4  PQQPISQQQQQQQQQQQQQQ [alpha-gliadin synthetic library peptide]              -1

Exercise: Exam item: decide whether the reported Chemotaxis Index (CI) for QQHNIAHGRSQVLQQSTYQL [alpha-gliadin synthetic library peptide] is at least 0.3.
Solution: -1

Exercise: Tell me whether Chemotaxis Index (CI) is at least 0.3 here: SSQVSFQQPLQQYPLGQGSF [alpha-gliadin synthetic library peptide]
Solution: -1

Exercise: Hi, just wondering whether GSVQPQQLPQFEEIRNLALQ [alpha-gliadin synthetic library peptide] shows Chemotaxis Index (CI) of 0.3 or higher.
Solution: 1

Exercise: Hi team, for LQELCCQHLWQIPEQSQCQA [alpha-gliadin synthetic library peptide] , is the recorded Chemotaxis Index (CI) at or above 0.3?
Solution: -1

Exercise: Hi, just wondering whether QIPEQSQCQAIHNVVHAIIL [alpha-gliadin synthetic library peptide] shows Chemotaxis Index (CI) of 0.3 or higher.
Solution: 1

Exercise: Check this sequence for Chemotaxis Index (CI) at or above 0.3: PPYCTIVPFGIFGTNYR [alpha-gliadin synthetic library peptide]
Solution: -1
